Origin of measurements: ChEMBL document CHEMBL1201862

# Lookup of reported GI50 keyed by entry
system: A498; test: NCI tumour cell line growth inhibition, 48 h
The source made the active and inactive calls. Rule as the data show it: active = GI50 up to about 1.1 µM and inactive = higher.

Would you please look over these solved cases?
- compound: "Cc1ccc(C)c(NC(=O)CC2SC(Nc3ccccc3Cl)=NC2=O)c1 (stereo unspecified)"
  val: "> 100 µM (inactive)"
- compound: "CCOc1ccc(/C=C\\c2cc(OC)c(OC)c(OC)c2)cc1"
  val: "0.00124 µM (active)"
- compound: "O=C(O)CS(=O)(=O)C(c1ccccc1)c1ccccc1"
  val: "> 100 µM (inactive)"
- compound: "COC(=O)C1SC(SC)=NC12c1ccccc1Nc1ccccc12 (stereo unspecified)"
  val: "41.8 µM (inactive)"
- compound: "CC[N+]1(C)CCC(O)(/C=C/c2ccccc2)C(C(=O)/C=C/c2ccccc2)C1 (stereo unspecified)"
  val: "21.1 µM (inactive)"

Challenge: Give GI50 for the following compound: `O=C1Nc2ccccc2/C1=N/NC(=S)Nc1ccccc1Cl`
Response given: 7.96 µM (inactive)

Challenge: Give GI50 for the following compound: `COc1ccc(-c2c(-c3ccccc3)c(C)nc3nc(SC)nc(SC)c23)cc1OC`
Response given: 15.7 µM (inactive)

Challenge: Give GI50 for the following compound: CS(=O)(=O)c1ccc(COP(N)(=O)N(CCCl)CCCl)cc1 (stereo unspecified)
Response given: > 100 µM (inactive)

Challenge: Give GI50 for the following compound: `COC(=O)c1ccccc1/N=C/c1ccc(N(CCC#N)S(=O)(=O)c2ccccc2)cc1`
Response given: > 100 µM (inactive)

Challenge: Give GI50 for the following compound: `COc1ccc(OC)c2c1C(=O)C(Cl)=C(N1CCN(CCOCCO)CC1)C2=O`
Response given: 16.9 µM (inactive)

Challenge: Give GI50 for the following compound: `CS(=O)(=O)N(CCC#N)c1ccc(C=O)cc1`
Response given: > 100 µM (inactive)

---

# Lookup of reported GI50 keyed by entry
system: UACC-62; assay: NCI tumour cell line growth inhibition, 48 h
Calls of active or inactive are those of the source. No stated cut-off is given here; in the data, active = GI50 up to about 1.1 µM and inactive = higher.

Would you please look over these solved cases?
- molecule: "COc1ccc(-c2c3c(n(C4OC(COC(C)=O)C(OC(C)=O)C(OC(C)=O)C4OC(C)=O)c(=S)c2C#N)CCC3)cc1 (stereo not given)"
  experimental-target: "UACC-62"
  GI50: "> 100 µM (inactive)"
- molecule: "[O-]c1c[n+](-c2ccccc2)no1"
  experimental-target: "UACC-62"
  GI50: "> 100 µM (inactive)"
- molecule: "Cc1ccc(NC(=O)CC(=O)n2nc(-c3ccccc3)c(/N=N\\c3ccccc3[N+](=O)[O-])c2-c2ccccc2)cc1"
  experimental-target: "UACC-62"
  GI50: "> 100 µM (inactive)"
- molecule: "COc1ccc(/C=C\\c2cc(OC)c(OC)c(OC)c2)cc1OCC(=O)O"
  experimental-target: "UACC-62"
  GI50: "4.99 µM (inactive)"

Challenge: Output reported GI50 of the molecule C=CCOC1(CC=C)C(=O)OC2C(O)COC21O (stereo not given) on UACC-62.
Response given: > 100 µM (inactive)

Challenge: Output reported GI50 of the molecule `Cc1c(/C=N/NC(=O)c2ccccc2O)c(=O)n(-c2ccccc2)n1C` on UACC-62.
Response given: > 100 µM (inactive)

Challenge: Output reported GI50 of the molecule `COc1cccc(-c2cc(=O)c3cc(C)c(C)c(C(=O)O)c3o2)c1` on UACC-62.
Response given: > 100 µM (inactive)
